Every entry's value here was drawn from patent US20100184815A1.

assay_summary: Metabolism studies using human liver microsomal preparations
Format: in vitro ADME
experimental_parameters: comparison of half life with and without NADPH: Esterase, CYP or Mixed
quantity_kind: HLMs Predominant Enzyme

Below, 6 compounds whose answers are already recorded.
CC(C)(Sc1ccc(C(=O)OCCc2cn(Cc3ccc(C(F)(F)F)cc3)nn2)cc1)C(=O)O
Mixed
CCCn1nc(Cc2ccc(C)cc2)cc1COC(=O)c1ccc(OC(C)(C)C(=O)O)cc1
Esterase
CCCCCCCCn1c(COC(=O)c2ccc(SC(C)(C)C(=O)O)cc2)nn(Cc2ccc(C)cc2)c1=O
Esterase
COC(c1ccc(Cn2cc(COC(=O)c3ccc(SC(C)(C)C(=O)O)cc3)nn2)cc1)(C(F)(F)F)C(F)(F)F
Esterase
CCCn1c(COC(=O)c2ccc(OC(C)(C)C(=O)O)cc2)nn(Cc2ccc(C(=O)O[C@H](C)C(F)(F)C(F)(F)F)cc2)c1=O
Esterase
Cc1ccc(Cn2cc(COC(=O)c3ccc(SC(C)(C)C(=O)O)cc3)nn2)cc1
Esterase

Given item C[C@@H](Cc1cn(Cc2ccc(C(C)(C)C)cc2)nn1)OC(=O)c1ccc(SC(C)(C)C(=O)O)cc1 , the value recorded as its HLMs Predominant Enzyme is Mixed

Given item CCCCCCn1c(COC(=O)c2ccc(OC(C)(C)C(=O)O)cc2)nn(Cc2ccc(C(C)(C)C)cc2)c1=O , the value recorded as its HLMs Predominant Enzyme is CYP

Given item CCCCCCn1c(COC(=O)c2ccc(OC(C)(C)C(=O)O)cc2)nn(Cc2ccc(C)cc2)c1=O , the value recorded as its HLMs Predominant Enzyme is Stable

Given item CCCCCCCn1c(COC(=O)c2ccc(OC(C)(C)C(=O)O)cc2)nn(Cc2ccc(C(C)(C)C)cc2)c1=O , the value recorded as its HLMs Predominant Enzyme is CYP

Given item CCCn1nc(Cc2ccc(C)cc2)cc1COC(=O)c1ccc(SC(C)(C)C(=O)O)cc1 , the value recorded as its HLMs Predominant Enzyme is Esterase

Given item CCCCCCCCn1c(COC(=O)c2ccc(OC(C)(C)C(=O)O)cc2)nn(Cc2ccc(C)cc2)c1=O , the value recorded as its HLMs Predominant Enzyme is Esterase

Given item Cc1ccc(Cn2nncc2COC(=O)c2ccc(OC(C)(C)C(=O)O)cc2)cc1 , the value recorded as its HLMs Predominant Enzyme is Stable

Given item CCCCCCCn1c(COC(=O)c2ccc(SC(C)(C)C(=O)O)cc2)nn(Cc2ccc(C(C)(C)C)cc2)c1=O , the value recorded as its HLMs Predominant Enzyme is CYP

Given item CCCCCCCn1c(COC(=O)c2ccc(SC(C)(C)C(=O)O)cc2)nn(Cc2ccc(C)cc2)c1=O , the value recorded as its HLMs Predominant Enzyme is Esterase

###

target_of_assay: Gal-4 hPPARα (Homo sapiens)
Construct: Plasmids pGal4-hPPARα, pGal4-hPPARγ, pGal4-hPPARδ and pG5-TK-pGL3 were constructed as previously described by Staels, Bart, et al., Nature 1998 Jun; 25
Sequence (Q07869 200-468 limits assumed): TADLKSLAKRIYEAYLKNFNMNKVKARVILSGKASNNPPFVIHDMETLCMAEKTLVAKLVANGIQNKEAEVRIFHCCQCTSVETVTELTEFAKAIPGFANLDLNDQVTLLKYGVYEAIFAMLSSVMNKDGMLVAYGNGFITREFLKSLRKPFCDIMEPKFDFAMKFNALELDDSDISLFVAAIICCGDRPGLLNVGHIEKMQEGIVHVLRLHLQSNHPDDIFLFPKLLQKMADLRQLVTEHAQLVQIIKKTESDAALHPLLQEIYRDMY
assay_summary: Gal4-hPPARα transient transfection reporter assay in Cos cells
experimental_parameters: luciferase reporter, 24 hours with compound, scale 1-5, read-out: Gal-4 hPPAR α EC50 (scaled number)
From the text: Construction of recombinant plasmids. Plasmids pGal4-hPPARα, pGal4-hPPARγ, pGal4-hPPARδ and pG5-TK-pGL3 were constructed as previously described by Staels, Bart, et al., Nature 1998 Jun. 25; 393 (6687): 790-793, by Staels (Institut Pasteur de Lille, FR). Transient transfection assays. […]
In this section, each of the molecules is paired with its reported EC50.

Below, 5 molecules whose answers are already recorded.
Cc1ccc(Cn2cc(CCOC(=O)c3ccc(SC(C)(C)C(=O)O)cc3)nn2)cc1
201 to 999 nM
CCCCCCCn1c(COC(=O)c2ccc(OC(C)(C)C(=O)O)c(OC)c2)nn(Cc2ccc(C(C)(C)C)cc2)c1=O
< 1 nM
CCCn1c(COC(=O)c2ccc(SC(C)(C)C(=O)O)cc2)nn(Cc2ccc(Br)cc2)c1=O
1 to 50 nM
CC(C)(Sc1ccc(C(=O)OCc2cnn(Cc3ccc(C(C)(C)C)cc3)c2)cc1)C(=O)O
1 to 50 nM
CCCCCCn1c(COC(=O)c2ccc(OC(C)(C)C(=O)O)c(OC)c2)nn(Cc2ccc(C(C)(C)C)cc2)c1=O
1 to 50 nM

Given item Cc1ccc(-n2cc(COC(=O)c3ccc(OC(C)(C)C(=O)O)cc3)c(-c3ccccc3)n2)cc1 , the value recorded as its EC50 is 51 to 200 nM

Given item CC(C)(Sc1ccc(C(=O)OCCn2cc(-c3ccc(C(C)(C)C)cc3)nn2)cc1)C(=O)O , the value recorded as its EC50 is 51 to 200 nM

###

target_of_assay: Gal-4 hPPARγ (Homo sapiens, UniProt P37231)
Construct: Plasmids pGal4-hPPARα, pGal4-hPPARγ, pGal4-hPPARδ and pG5-TK-pGL3 were constructed as previously described by Staels, Bart, et al., Nature 1998 Jun; 25
Sequence (P37231 238-505 limits assumed): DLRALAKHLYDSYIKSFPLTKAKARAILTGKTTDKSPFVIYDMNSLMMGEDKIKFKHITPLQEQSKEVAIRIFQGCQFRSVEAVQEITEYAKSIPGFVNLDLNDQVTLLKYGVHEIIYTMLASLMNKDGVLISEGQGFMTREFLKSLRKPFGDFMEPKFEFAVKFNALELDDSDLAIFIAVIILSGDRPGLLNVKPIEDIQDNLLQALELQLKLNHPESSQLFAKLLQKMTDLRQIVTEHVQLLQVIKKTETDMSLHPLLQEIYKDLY
assay_summary: Gal4-hPPARγ transient transfection reporter assay in Cos cells
experimental_parameters: luciferase reporter, 24 hours with compound, scale 1-5, read-out: Gal-4 hPPAR γ EC50 (scaled number)
pEC50: −log10 of the molar value.
quantity_kind: pEC50

Below, 3 compounds whose answers are already recorded.
Cc1ccc(-n2cc(COC(=O)c3ccc(OC(C)(C)C(=O)O)cc3)c(-c3ccccc3)n2)cc1
6.00 to 6.70
Cc1ccc(Cn2nncc2COC(=O)c2ccc(SC(C)(C)C(=O)O)cc2)cc1
< 6.00
COc1ccc(Cn2cc(COC(=O)c3ccc(SC(C)(C)C(=O)O)cc3)nn2)cc1
< 6.00

Now look at this entry.
Given item CC(C)(Sc1ccc(C(=O)OCc2cn(Cc3ccc(OC(F)(F)F)cc3)nn2)cc1)C(=O)O , the value recorded as its pEC50 is < 6.00

###

assay_summary: Metabolism studies using human liver microsomal preparations
Format: in vitro ADME
experimental_parameters: pH 7.4; pooled human liver microsomes, with NADPH (CYP system active), 37° C.; read-out: HLMs t1/2
Strictly below 30 min in half-life: T. Otherwise: F.

CCCCCCn1c(COC(=O)c2ccc(SC(C)(C)C(=O)O)cc2)nn(Cc2ccc(C(C)(C)C)cc2)c1=O [Compound 187]
F

Attention now turns to another entry.
Challenge: State whether 30 min exceeds half-life recorded for CCCCCCn1c(COC(=O)c2ccc(OC(C)(C)C(=O)O)cc2)nn(Cc2ccc(C(C)(C)C)cc2)c1=O [Compound 188] .
Response given: F

###

In this section, each of the molecules is paired with its reported half-life at 4.9 µM.
Test system: pig liver esterase
assay_summary: Metabolism studies using pig liver esterase
Type: in vitro ADME
experimental_parameters: pig liver esterase in phosphate buffer pH 7.4, no plasma, 37° C.; read-out: Pig Liver Esterase (t1/2 min.) (−) Plasma
Number only, in min; omit the unit.

Below, 2 molecules whose answers are already recorded.
CCCCCCCn1c(COC(=O)c2ccc(OC(C)(C)C(=O)O)cc2)nn(Cc2ccc(C(C)(C)C)cc2)c1=O
8
CC(C)(Sc1ccc(C(=O)OCc2cn(Cc3ccc(C(F)(F)F)cc3)nn2)cc1)C(=O)O
21

Now look at this entry.
Given item COC(c1ccc(Cn2cc(COC(=O)c3ccc(SC(C)(C)C(=O)O)cc3)nn2)cc1)(C(F)(F)F)C(F)(F)F , the value recorded as its half-life at 4.9 µM is 29

###

assay_summary: Metabolism studies using human liver microsomal preparations
Format: in vitro ADME
experimental_parameters: pooled human liver microsomes, with NADPH (CYP system active), 37° C.
quantity_kind: HLMs t1/2 (min)

Below, 5 molecules whose answers are already recorded.
CC(C)(Sc1ccc(C(=O)OCc2cn(Cc3ccc(C(F)(F)F)cc3)nn2)cc1)C(=O)O
Stable
C[C@@H](OC(=O)c1ccc(SC(C)(C)C(=O)O)cc1)c1cn(Cc2ccc(C(F)(F)F)cc2)nn1
Stable
CCCn1c(C(C)OC(=O)c2ccc(SC(C)(C)C(=O)O)cc2)nn(Cc2ccc(C)cc2)c1=O (stereo not shown)
Stable
CCCCCCCCn1c(COC(=O)Cc2ccc(OC(C)(C)C(=O)O)cc2)nn(Cc2ccc(C)cc2)c1=O
Stable
CCCn1c([C@H](C)OC(=O)c2ccc(SC(C)(C)C(=O)O)cc2)nn(Cc2ccc(C)cc2)c1=O
Stable

Now look at this entry.
Given item CCCn1c(COC(=O)c2ccc(SC(C)(C)C(=O)O)cc2)nn(Cc2ccc(C(C)(C)C)cc2)c1=O , the value recorded as its HLMs t1/2 (min) is Stable

###

In this section, each of the compounds is paired with its reported pEC50.
target_of_assay: Full Length hPPARα (Homo sapiens, UniProt Q07869)
Construct: Full Length
Sequence (Q07869 whole entry): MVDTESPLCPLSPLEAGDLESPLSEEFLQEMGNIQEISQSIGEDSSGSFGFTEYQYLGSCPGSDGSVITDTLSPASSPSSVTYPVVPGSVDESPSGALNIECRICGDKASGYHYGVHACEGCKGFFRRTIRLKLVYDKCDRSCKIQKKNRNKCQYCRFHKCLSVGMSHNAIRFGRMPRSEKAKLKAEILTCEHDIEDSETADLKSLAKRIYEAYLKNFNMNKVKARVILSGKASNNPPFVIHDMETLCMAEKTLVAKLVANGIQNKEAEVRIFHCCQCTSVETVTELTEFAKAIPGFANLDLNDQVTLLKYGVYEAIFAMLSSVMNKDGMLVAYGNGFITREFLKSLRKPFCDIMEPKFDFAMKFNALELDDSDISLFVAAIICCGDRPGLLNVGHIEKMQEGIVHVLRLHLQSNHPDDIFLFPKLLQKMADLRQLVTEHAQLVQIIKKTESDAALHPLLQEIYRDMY
assay_summary: Full length hPPARα transfection assay
experimental_parameters: full length receptor; read-out: Full Length hPPAR α EC50 (scaled number)
pEC50: −log10 of the molar value.

Cn1nc(-c2ccccc2)cc1COC(=O)c1ccc(OC(C)(C)C(=O)O)cc1 [Compound 2]
7.30 to 9.00
COc1ccc(Cn2cc(COC(=O)c3ccc(SC(C)(C)C(=O)O)cc3)nn2)cc1 [Compound 68]
6.70 to 7.29
CCCn1c(COC(=O)c2ccc(OC(C)(C)C(=O)O)cc2)nn(Cc2ccc(C(C)(C)C)cc2)c1=O [Compound 150]
7.30 to 9.00
CCCn1c(COC(=O)c2ccc(SC(C)(C)C(=O)O)cc2)nn(Cc2ccc(C(C)(C)C)cc2)c1=O [Compound 159]
7.30 to 9.00
CCCn1c(COC(=O)c2ccc(OC(C)(C)C(=O)O)cc2)nn(Cc2ccc(OC(F)(F)F)cc2)c1=O [Compound 168]
6.70 to 7.29

Given item CCCCCCCCn1c(COC(=O)c2ccc(OC(C)(C)C(=O)O)c(OC)c2)nn(Cc2ccc(C)cc2)c1=O [Compound 186] , the value recorded as its pEC50 is 6.70 to 7.29

Given item CCCCCCCn1c(COC(=O)c2ccc(OC(C)(C)C(=O)O)cc2)nn(Cc2ccc(C)cc2)c1=O [Compound 192] , the value recorded as its pEC50 is > 9.00

Given item CC(C)(Sc1ccc(C(=O)OCCn2cc(-c3ccc(C(C)(C)C)cc3)nn2)cc1)C(=O)O [Compound 89] , the value recorded as its pEC50 is 7.30 to 9.00
